Assay: Solubility
Assay type: physicochemical
Listing of recorded solubility by entry.
Only the number, expressed in µg/mL, is required.

Solved entries:
# compound, solubility / µg/mL
rows = [
    ("COc1cccc(-c2oc(CCCCCCC(=O)NO)nc2-c2ccccc2)c1 [Example 3]", 200),
    ("CCOc1ccc(-c2oc(CCCCCCC(=O)NO)nc2-c2ccncc2)cc1 [Example 19]", 700),
    ("COc1ccc(-c2nc(CCCCCCC(=O)NO)oc2-c2ccc(OC)cc2)cc1 [Example 10]", 200),
    ("O=C(CCCCCCc1nc(-c2cccc(F)c2)c(-c2cccnc2)o1)NO [Example 16]", 1400),
    ("O=C(CCCCCCc1nc(-c2ccc(F)cc2)c(-c2cccnc2)o1)NO [Example 15]", 2000),
]

Asked: // solubility lookup, key: COc1ccccc1-c1oc(CCCCCCC(=O)NO)nc1-c1ccccc1 [Example 2]
Given back: 400

Asked: Entry O=C(CCCCCCc1nc(-c2ccccc2)c(-c2ccccc2)o1)NO [Example 4] please
Given back: 200

Taken from patent US8039634B2.
